Measured melting point, listed per entry.

{"MOLECULE": "CCOC(=O)[C@@]1(F)[C@@H]2CC=C(C(=O)OCc3ccccc3)[C@@H]21", "REPORTED RESULT": "90 to 91 °C"}
{"MOLECULE": "Cn1cc(C2=C(c3c4n(c5ccccc35)CCC(C#N)C4)C(=O)NC2=O)c2ccccc21 (centres undefined)", "REPORTED RESULT": "312 to 313 °C"}
{"MOLECULE": "Nc1ccc(F)c(SC(F)(F)F)c1", "REPORTED RESULT": "120 °C"}
{"MOLECULE": "O=C1NC(=O)C(=Cc2ccc(-c3cc(C4CCCCC4)c4oc(C(Cl)(Cl)Cl)nc4c3)nc2)S1", "REPORTED RESULT": "253 °C"}
{"MOLECULE": "O=C(O)COc1cccc2c1CCc1sc(OCCC(c3ccccc3)c3ccccc3)nc1-2", "REPORTED RESULT": "165 to 166 °C"}
{"MOLECULE": "Nc1nc(Nc2ccc(N3CCOCC3)cc2)sc1C(=O)c1c(Cl)cncc1Cl", "REPORTED RESULT": "292 °C"}
{"MOLECULE": "COc1cccc(CNC(=O)COc2ccn3nc(-c4ccccc4)c(-c4ccc(=O)n(C(C)C)n4)c3c2)c1", "REPORTED RESULT": "166 to 168 °C"}
{"MOLECULE": "CCCCCCc1oc(C=Cc2ccccc2)nc1CC(=O)O", "REPORTED RESULT": "107 to 108 °C"}

Ask: Item "O=[N+]([O-])c1cc2nc(O)c(O)nc2c2ncccc12" has what recorded melting point?
Reply: > 300 °C

---

Measured melting point, listed per entry.

Example cases with answers are listed next.
{"MOLECULE": "C=CCOc1ccc(C(=O)CC(C#N)(CCC)c2ccc(OC)cc2OC)cc1 (configuration not stated)", "melting point": "86.1 to 87.1 °C"}
{"MOLECULE": "O=C(c1ccccc1)C(OCCN1CCCCC1)c1ccccc1 (configuration not stated)", "melting point": "53 °C"}

Ask: Item "O=C(Oc1ccc(OC(=O)c2ccc(O)c(O)c2)c2ccccc12)c1ccc(O)c(O)c1" has what recorded melting point?
Reply: 261 °C

Ask: Record: CC1(C)CCC(C)(C)c2cc(C(Br)C(Br)c3ccc(C#N)cc3)ccc21 (configuration not stated)
Reply: 174 to 175 °C

Ask: Record: "O=C(NC(=O)C(c1ccccc1)c1ccccc1)OCCN1CCOCC1"
Reply: 135 to 137 °C

Ask: Record: "CCO[C@@H]1c2ccn3c(C)c(C)nc3c2N[C@H](c2ccccc2)[C@H]1O"
Reply: 143 to 144 °C

Ask: Record: "CCCc1cc(=O)oc2c(C(C)=O)c(O)cc(O)c12"
Reply: 221 to 224 °C

Ask: Record: "CON(C)C(=O)c1nc(C(C)(C)C)c(O)c(C(C)(C)C)n1"
Reply: 137 to 138 °C

Ask: Record: "N#Cc1c(Cl)c(F)cc(C(=O)Cl)c1Cl"
Reply: 73 to 75 °C

Ask: Record: "O=C(CCCOc1cccc(CNC(=O)c2nc3ccccc3c(=O)[nH]2)c1)NO"
Reply: 164 to 168 °C

Ask: Record: CC(Cl)(Cl)C(NC(=O)c1ccc(Cl)cc1)NC(=NC#N)Nc1ccccc1F (configuration not stated)
Reply: 216 to 217 °C

---

READOUT KIND: melting point

Example cases with answers are listed next.
{"COMPOUND": "Cc1ccc(S(=O)(=O)NC2CCCC2NC(=O)OC(C)(C)C)cc1 (stereo unspecified)", "melting point": "129 to 130 °C"}
{"COMPOUND": "CCCNC1=NS(=O)(=O)c2sc(C)cc2N1", "melting point": "263 to 264 °C"}
{"COMPOUND": "COc1ccc(-c2ccncc2)cc1", "melting point": "94 to 96 °C"}
{"COMPOUND": "CCOC(=O)C(=O)Cc1ccnc2c1C(=O)c1ccccc1-2", "melting point": "196 to 197 °C"}
{"COMPOUND": "COc1ccc2c(c1OC)CCC1=C2CCC(=O)N1", "melting point": "231 °C"}

# evaluate next
Ask: Item "CCc1c(C(=O)OC(C)C)ncc2[nH]c3ccc(NC(C)=S)cc3c12" has what recorded melting point?
Reply: 158 to 160 °C

---

READOUT KIND: melting point

{"COMPOUND": "O=C(NCc1ccc2c(c1)OCO2)c1ccc(C(=O)NCc2ccc3c(c2)OCO3)s1", "melting point": "207 to 209 °C"}
{"COMPOUND": "Cc1cccc2nc(C(C)Nc3ncnc4c3ncn4COCC[Si](C)(C)C)n(-c3cccc(C(N)=O)c3)c(=O)c12 (stereo not given)", "melting point": "195 to 197 °C"}
{"COMPOUND": "CCOC(=O)c1cc2c(n1CCN)CCCC2", "melting point": "102 to 104 °C"}
{"COMPOUND": "CC(C)OC(=O)c1ccc2c(c1)ncn2-c1cccc(Br)c1", "melting point": "102 to 104 °C"}

Ask: Item "CCCCN1C[C@@H](C(=O)O)N(C(=O)[C@H](C)CSC(=O)c2ccccc2)C1=O" has what recorded melting point?
Reply: 119 °C

---

Measured melting point, listed per entry.

{"COMPOUND": "CCOC(=O)c1cc(CN)c[nH]1", "READOUT KIND": "melting point", "REPORTED RESULT": "78 to 79 °C"}

Ask: Item Cn1c(=O)cc(CCc2ccc(Cl)s2)c2cc(C(O)(c3ccc(Cl)cc3)c3cccnc3)ccc21 (configuration not stated) has what recorded melting point?
Reply: 110 °C

Ask: Record: "O=C(CCCN1CCC2(CC1)OC(=O)c1ccccc12)c1ccc(F)cc1"
Reply: 183 to 184 °C

Ask: Record: COc1cc(OC)c2c(c1)OC(C(C)(C)C(N)=O)CC2=O (configuration not stated)
Reply: 161 to 163 °C

---

Measured melting point, listed per entry.

{"COMPOUND": "O=C1c2ccsc2S(=O)(=O)CCN1CCCCN1CCN(c2ncccn2)CC1", "melting point": "161 to 163 °C"}
{"COMPOUND": "CC(C)Cn1c(CNC(=O)OC(C)(C)C)c(-c2ccccc2)c2cc(OCc3ccccc3)ccc2c1=O", "melting point": "141 to 142 °C"}
{"COMPOUND": "CC1(C(=O)NC(CCC(=O)O)Cc2ccccc2)Cc2c([nH]c3ccccc23)CN1C(=O)OC1C2CC3CC(C2)CC1C3 (stereo not drawn)", "melting point": "133 to 138 °C"}
{"COMPOUND": "COC(=O)CCCc1cc2cc(Cl)ccc2n1S(=O)(=O)c1cccc(Cl)c1Cl", "melting point": "115 to 117 °C"}
{"COMPOUND": "CC(c1oc2ccccc2c(=O)c1-c1cccc(F)c1)n1nc(-c2ccc(Oc3ccccc3)cc2)c2c(N)ncnc21 (stereo not drawn)", "melting point": "218 to 220 °C"}

Ask: Item COc1c(C)c(C)c(OC)c(C(O)(c2ccc(N3CCOCC3)cc2)C(C)C)c1C (stereo not drawn) has what recorded melting point?
Reply: 191 to 193 °C

---

Measured melting point, listed per entry.

Example cases with answers are listed next.
{"STRUCTURE NOTATION": "C=CCC(CC=C)C(=O)O[C@H]1C[C@H](O)C=C2C=C[C@H](C)[C@H](CC[C@@H]3C[C@@H](O)CC(=O)O3)[C@H]21", "REPORTED RESULT": "159 to 160 °C"}
{"STRUCTURE NOTATION": "COc1ccc(Br)cc1-c1cc(-c2ccc(Br)cc2)no1", "REPORTED RESULT": "153 to 154 °C"}

Ask: Item "O=Cc1ccc2oc3ncccc3c(=O)c2c1" has what recorded melting point?
Reply: 233 to 235 °C

Ask: Record: "Cc1ccn2c(C)c(-c3ccc4sc(=O)n(Cc5cccnc5)c4c3)nc2c1"
Reply: 201 to 202 °C

Ask: Record: "CC=Cc1cnn(-c2c(Cl)cc(C(F)(F)F)cc2Cl)n1"
Reply: 35 °C

---

Measured melting point, listed per entry.

Example cases with answers are listed next.
{"MOLECULE": "C#Cc1cnn2c(C(F)F)cc(-c3cccc(C(F)(F)F)c3)nc12", "melting point": "149 °C"}
{"MOLECULE": "C(=C1CCc2cccnc21)c1ccccc1", "melting point": "74 to 75 °C"}
{"MOLECULE": "COc1cccc(N(CCN2CCC(C(=O)c3ccc(F)cc3)CC2)C(=O)c2ccc([N+](=O)[O-])cc2)c1", "melting point": "133 to 135 °C"}

Ask: Item CCS(=O)CC(O)(C(=O)Nc1ccc(C#N)c(C(F)(F)F)c1)C(F)(F)F (centres undefined) has what recorded melting point?
Reply: 141 to 143 °C

Ask: Record: "CSc1nnc(COc2cc(C(C)(C)C)c(O)c(C(C)(C)C)c2)s1"
Reply: 128 to 130 °C

Ask: Record: CC(=O)N1c2ccccc2[C@H](Nc2ccccc2C(=O)O)C[C@@H]1C (relative stereo)
Reply: 122 to 123 °C

Ask: Record: Cc1cccc2c1nc(-c1cccc(Cl)c1[N+](=O)[O-])n2CC(O)C(C)(C)C (centres undefined)
Reply: 236 to 237 °C

Ask: Record: "CC(C)(C)OC(=O)NCc1cc(C(C)(C)C)cc(Cl)c1O"
Reply: 161 to 163 °C

Ask: Record: "Nc1nc(Nc2ccc3c(c2)OCO3)sc1C(=O)c1ccccc1[N+](=O)[O-]"
Reply: 200 to 202 °C
